- protocol.notes: clinical
- recorded.conditions: human, in vivo, 55 mg, Vz/Fss
readout.type: Vd/F (L)
Expressed in L, but write only the number.

// query Consider the compound CN(C)C/C=C/C(=O)Nc1cc2c(Nc3ccc(F)c(Cl)c3)ncnc2cc1O[C@H]1CCOC1 . State its measured Vd/F.
// result 2040

###

- protocol.notes: clinical
- recorded.conditions: human, in vivo, 20 mg, CL/Fss
readout.type: CL/F (mL/min)
Expressed in mL/min, but write only the number.

// query Consider the compound CN(C)C/C=C/C(=O)Nc1cc2c(Nc3ccc(F)c(Cl)c3)ncnc2cc1O[C@H]1CCOC1 [afatinib] . State its measured CL/F.
// result 732
